- Procedure details: probe aXIP binding to arrayed compounds – biochemical, NeuroSMM set, 635/667 nm fluorescence, primary screen (AID 1119);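 also: probe is the protein aXip251-270 applied at 1 µg/mL to compound-printed slides; binding of probe to printed compounds measured as 667 nm fluorescence plus signal to noise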
- Measurement setup: small-molecule microarray, higher = more signal, called active from +8 up or from −8 down
Calls of active or inactive are those of the source.
Exercise: for every item that follows, state its recorded composite Z-score.

COCCOC(=O)N1C(=O)[C@@]2(c3cc(C#CCC(C(=O)OC)C(=O)OC)ccc31)[C@H](C(=O)Nc1nc3ccccc3s1)[C@H]1C(=O)O[C@H](c3ccccc3)[C@H](c3ccccc3)N1[C@@H]2c1ccc(O)cc1 0.247 (inactive)

Answer for every listed entry: what is its composite Z-score? The entries follow.
1. C[C@@H]1ON(c2ccc(I)cc2)[C@H](c2cccc(NC(=O)OCC3c4ccccc4-c4ccccc43)c2)[C@H]1C(=O)N1C(=O)OC[C@H]1Cc1ccccc1
2. O=C(N1CCOCC1)[C@@]1(Cc2ccccc2)COC(c2ccc(OCCCO)cc2)=N1

1. -0.222 (inactive)
2. -0.0252 (inactive)

---

- Target or system: Carbonic anhydrase 2 (Homo sapiens)
- Procedure details: compounds binding carbonic anhydrase 2 – biochemical, small-molecule microarray, Alexa647-labelled CAII, profiling panel (AID 1122)
- Measurement setup: CAII-A647 binding fluorescence, higher = more signal
Give TRUE when the value for composite z-score is at least 0.4. Give FALSE when it is less.

Here's what some known entries look like.
Compound	Group label
C=CC[C@@]12N=C(c3ccc(OCCCO)cc3)O[C@@H]1c1ccccc1N(CCC)C2=O	FALSE
O=C1NC(=O)C2C1C=CC(C(O)c1ccc([N+](=O)[O-])cc1)N2Nc1ccccn1 (stereo unspecified)	FALSE
O=C(NCCN1CCOCC1)[C@@H]1c2ccccc2C(=O)N(Cc2ccccc2C(F)(F)F)[C@H]1c1ccc(CO)cc1	FALSE
CC1CC/C=C\[C@H]2OC34C=CCN(Cc5ccccc5)C(=O)[C@H]3N(CCCCCCO)C(=O)[C@@H]4C2C(=O)O1 (stereo partly specified)	TRUE
C=C1C(=O)C=C2CN(C(=O)c3ccccc3)[C@@](Cc3ccc(OC)cc3)(C(=O)OC)[C@@H]12	TRUE
CC(C)C(=C=CC[C@H](O)c1ccccc1OCCO)C[C@H](O)c1cc(Cl)cc(Cl)c1O	TRUE
COC(=O)[C@H](Cc1ccccc1)N1CC2=CCCC=C[C@@H]2[C@H]1[C@H](O)Cc1ccccc1	TRUE
[N-]=[N+]=Nc1ccccc1[C@@H]1OC(c2ccc(OCCCO)cc2)=N[C@]1(CCS(=O)(=O)c1ccccc1)C(=O)NCC(O)CO (stereo partly specified)	TRUE

Determine whether measured composite z-score meets or exceeds 0.4 for CC(=O)c1ccc(C(O)C2C=CC3C(=O)N(c4ccccc4)C(=O)C3N2Nc2ccc(C(C)C)cc2)cc1 (stereo unspecified)
TRUE

Determine whether measured composite z-score meets or exceeds 0.4 for "C[N+](C)(C)CCCC[C@@H]1NC(=O)[C@@H]2C[C@H](C(=O)NCc3ccc(F)cc3)[C@H](c3ccc(O)cc3)N2C1=O"
TRUE

Determine whether measured composite z-score meets or exceeds 0.4 for C=CCC(OC(C)=O)[C@@H]1[C@@H](N(Cc2cccc3ccccc23)C(=O)Cc2ccc(OC)cc2)c2cc(OCCCO)ccc2N1C(=O)c1ccc2ccccc2c1 (stereo partly specified)
FALSE

---

- Target or system: Streptavidin (Streptomyces avidinii)
- Procedure details: compounds binding control protein streptavidin – biophysical, small-molecule microarray, 635/667 nm fluorescence, artefact control for SMM compound annotation, primary screen (AID 1147);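 also: signal reflects streptavidin binding to arrayed compounds as a control protein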
- Measurement setup: higher = more signal
Measured quantity: composite z-score
Give bare numbers.

Solved cases (8 shown):
Compound	Measured quantity	Reported
COCCCNC(=O)[C@@]1(CCC(=O)OC(C)(C)C)COC(c2ccc(OCCCO)cc2)=N1	composite z-score	0.905
C=CCC(OC(C)=O)[C@@H]1[C@@H](N(Cc2ccc(-c3cccc(C(F)(F)F)c3)o2)C(=O)Cc2ccc(F)cc2)c2cc(OCCCO)ccc2N1C(=O)Cc1ccc2ccccc2c1 (stereo not given in full)	composite z-score	-0.426
[N-]=[N+]=NCc1ccccc1[C@@H]1OC(c2ccc(OCCCO)cc2)=N[C@]1(Cc1ccccc1N=[N+]=[N-])C(=O)NCC(O)CO (stereo not given in full)	composite z-score	1.74
C=CCC(OC(C)=O)[C@@H]1[C@@H](N(Cc2cc3ccccc3o2)C(=O)c2cccc3ccccc23)c2cc(OCCCO)ccc2N1C(=O)c1ccc2ccccc2n1 (stereo not given in full)	composite z-score	0.0002
CN(C)C(=O)[C@@]1(Cc2ccccc2CN=[N+]=[N-])COC(c2ccc(OCCCO)cc2)=N1	composite z-score	-0.0988
O=C1O[C@H](c2ccccc2)[C@H](c2ccccc2)N2[C@H]1[C@@H](C(=O)N1CCN(c3ncccn3)CC1)[C@]1(C(=O)Nc3ccc(C#CCCO)cc31)[C@H]2c1ccc(O)cc1	composite z-score	1.05
CC1CC/C=C\[C@H]2OC34C=CCN(c5ccc(Cl)cc5)C(=O)[C@H]3N(CCCCCCO)C(=O)[C@]4(C)C2C(=O)O1 (stereo not given in full)	composite z-score	-0.963
COC(=O)C[C@H]1O[C@@]2(C[C@@H]1[Si](C)(C)C)C(=O)N(C)c1ccccc12	composite z-score	0.327

Answer for every listed entry: what is its composite z-score? The entries follow.
1. CC(=O)OCC1C2CC[C@H]3C(OCc4ccc(F)cc4C(F)(F)F)OC[C@]4(C)[C@H]3C2=C(CN4C(=O)OC(C)(C)C)[C@H](C)C1COC(C)=O (stereo not given in full)
2. CC(C)=C1C(=O)C(c2ccccc2)=C2CN3C(=O)N(CCc4ccccc4)C(=O)[C@]3(C)[C@H]21
3. C=CC[C@]1(C(=O)NCC(O)CO)COC(c2ccc(OCCCO)cc2)=N1 (stereo not given in full)
4. CCN(CC)c1ccc(N2CC=CC34O[C@@H]5C=CCCOC(=O)C5[C@H]3C(=O)N(C(C)CO)[C@@H]4C2=O)cc1 (stereo not given in full)
5. Cc1ccc(S[C@]2(C(=O)NCc3ccccc3)CC(=O)N(Cc3ccccc3C(F)(F)F)[C@@H]2c2ccc(CO)cc2)cc1
6. COc1ccc(C#Cc2ccc3c(c2)[C@]2(C(=O)N3)[C@H](C(=O)O)[C@H]3C(=O)O[C@H](c4ccccc4)[C@H](c4ccccc4)N3[C@@H]2c2ccccc2OCCO)cc1

1. 1.16
2. 0.509
3. -0.486
4. -0.638
5. -1.05
6. 0.904

Answer for every listed entry: what is its composite z-score? The entries follow.
1. C[C@@H]1ON(c2ccc(I)cc2)[C@H](c2cccc(NC(=O)OCC3c4ccccc4-c4ccccc43)c2)[C@H]1C(=O)N1C(=O)OC[C@H]1Cc1ccccc1
2. CCCN1C(=O)[C@@]2(c3ccc([N+](=O)[O-])cc3)CC(=O)N(CC34CC5CC(CC(C5)C3)C4)[C@@H]2c2ccc(CO)cc21
3. C=CCNC(=O)[C@H]1[C@@H]2C(=O)O[C@@H](c3ccccc3)[C@@H](c3ccccc3)N2[C@@H](c2ccc(OCCO)cc2)[C@]12C(=O)Nc1ccccc12
4. CC(C)NC(=O)[C@@H]1c2ccccc2C(=O)N(Cc2ccc(OC(F)(F)F)cc2)[C@H]1c1ccc(CO)cc1
5. O=C(NCc1ccc(F)cc1)[C@H]1C[C@H]2C(=O)N3CCC[C@H]3C(=O)N2[C@H]1c1ccc(O)cc1
6. CO[C@H]1O[C@H](CO)[C@@H](OC(=O)Nc2ccccc2)[C@H](OC(=O)Nc2ccccc2)[C@H]1OC(=O)Nc1ccccc1

0.226
-0.192
0.917
0.201
-1.32
0.0545

Answer for every listed entry: what is its composite z-score? The entries follow.
1. CC(=O)c1ccc(C(O)C2C=CC3C(=O)N(c4ccccc4)C(=O)C3N2Nc2ccc(C(C)C)cc2)cc1 (stereo not given)
2. Cc1ccc(F)cc1S(=O)(=O)N[C@H]1CCN(Cc2ccc(OC(C)C)cc2)C1
3. COC(=O)[C@@]1(Cc2ccccc2)[C@H]2c3cc(C(=O)N(C)C)n(Cc4ccc(S(C)(=O)=O)cc4)c3C[C@H]2CN1C(=O)c1ccccc1

1: 1.43; 2: -0.48; 3: 2.48

Answer for every listed entry: what is its composite z-score? The entries follow.
1. CCOC(=O)c1cn(C[C@H](Cc2ccccc2)NC(=O)N[C@H](CO)CCc2oc(C(C)=O)c(C(=O)OC)c2C(=O)OC)nn1
2. O=C(NCCN1CCOCC1)[C@@H]1c2ccccc2C(=O)N(Cc2ccc(OC(F)(F)F)cc2)[C@H]1c1ccc(CO)cc1

1: 0.486; 2: -0.119
